// data source = ChEMBL document CHEMBL1909046

test: DRUGMATRIX: Serotonin (5-Hydroxytryptamine) 5-HT3 radioligand binding (ligand: [3H] GR-65630); type: cell membranes, Membrane; conditions: hek293; Not Active = under 50% inhibition at 10 µM

>  <compound>
Nc1nc(Cl)nc2c1ncn2[C@H]1C[C@H](O)[C@@H](CO)O1

>  <IC50>
Not Active

$$$$
>  <compound>
CC(=O)O[C@]1(C(C)=O)CC[C@H]2[C@@H]3C=C(C)C4=CC(=O)CC[C@]4(C)[C@H]3CC[C@@]21C [MEGESTROL ACETATE]

>  <IC50>
Not Active

$$$$
>  <compound>
CO[C@@]1(NC(=O)CSCC#N)C(=O)N2C(C(=O)O)=C(CSc3nnnn3C)CS[C@@H]21

>  <IC50>
Not Active

$$$$
>  <compound>
COc1ccccc1OCC(O)CO (stereo not drawn)

>  <IC50>
Not Active

$$$$
>  <compound>
CC[C@H](C)C(=O)O[C@H]1C[C@@H](C)C=C2C=C[C@H](C)[C@H](CC[C@@H]3C[C@@H](O)CC(=O)O3)[C@H]21

>  <IC50>
Not Active

$$$$
>  <compound>
CCOC(=O)C1=C(C)NC(C)=C(C(=O)OC)C1c1cccc(Cl)c1Cl (stereo not drawn)

>  <IC50>
Not Active

$$$$
>  <compound>
Cc1c(F)c(N2CCNC(C)C2)cc2c1c(=O)c(C(=O)O)cn2C1CC1 (stereo not drawn)

>  <IC50>
Not Active

$$$$
>  <compound>
C[C@H]([C@](O)(Cn1cncn1)c1ccc(F)cc1F)S(C)(=O)=O

>  <IC50>
Not Active

$$$$
